methodDescription: In vivo kinetics experiment (radioactivity distribution)
Design: species or system Wistar male rat
measurementSetup: rat, caudal vein, 60 min after administration
Binary classification by Radioactivity distribution Spleen, with 4 % ID/g as an inclusive lower bound for 1; all other cases are -1.

Worked set:
> print(dat)
                                   compound  answerlabel
1  FCCn1c(-c2cncc(Cn3ccnc3)c2)nc2cc(F)c([123I])cc21 [[^123I] 400]            1
2  Fc1cc2nc(-c3cncc(Cn4ccnc4)c3)n(CCC[18F])c2cc1Cl [[^18F] 500]           -1
3  Fc1cc2nc(-c3cncc(Cn4ccnc4)c3)n(CC[18F])c2cc1Cl [[^18F] 100]            1
4  [123I]c1ccc2nc(-c3cncc(Cn4ccnn4)c3)n(C3CC3)c2c1 [[^123I] 603]            1

Check this compound for Radioactivity distribution Spleen at or above 4 % ID/g: Fc1cc2nc(-c3cncc(Cn4ccnc4)c3)n(CC[18F])c2cc1Br [[^18F] 200]
-1

Answer whether Radioactivity distribution Spleen of [123I]c1ccc2nc(-c3cncc(Cn4ccnc4)c3)n(C3CC3)c2c1 [[^123I] 602] is greater than or equal to 4 % ID/g.
1

* * *

We begin with a simple list: items and their reported Radioactivity distribution Adrenal gland.
methodDescription: In vivo kinetics experiment (radioactivity distribution)
Parameters: species or system Wistar male rat
measurementSetup: 60 min after administration; rat i.v.; mean ± SD
State just the number; it will be interpreted in % ID/g.

> print(dat)
                                   molecule   units  recordednumber
1  COC(=O)c1cncn1[C@H](C)c1ccc(I)cc1 [[^123I] IMTO, (R)-[^123I]iodometomidate, reference compound]  % ID/g           19.70
2  COc1cc([123I])cc2c1nc(-c1cncc(Cn3ccnc3)c1)n2C1CC1 [[^123I] 609]  % ID/g           11.04
3  CCn1c(-c2cncc(Cn3ccnc3)c2)nc2ccc([123I])cc21 [[^123I] 608]  % ID/g           15.22

Continue with the molecule presented below.
Provide only the value of recorded Radioactivity distribution Adrenal gland for Cn1c(-c2cncc(Cn3ccnc3)c2)nc2ccc([123I])cc21 [[^123I] 607]
18.47

* * *

Quick reference: Radioactivity distribution Liver of the listed items.
methodDescription: In vivo kinetics experiment (radioactivity distribution)
Parameters: species or system Wistar male rat
measurementSetup: 60 min after administration; rat i.v.; mean ± SD
Give just the number in % ID/g; leave the unit off.

Identify the reported Radioactivity distribution Liver for the following entry. FCCn1c(-c2cncc(Cn3ccnc3)c2)nc2ccc([123I])cc21 [[^123I] 604]
0.96

Find the measured Radioactivity distribution Liver of COc1cc([123I])cc2c1nc(-c1cncc(Cn3ccnc3)c1)n2C1CC1 [[^123I] 609] and report it.
2.77

Please look at this compound and report its Radioactivity distribution Liver: COC(=O)c1cncn1[C@H](C)c1ccc(I)cc1 [[^123I] IMTO, (R)-[^123I]iodometomidate, reference compound]
1.37

// Input: CCn1c(-c2cncc(Cn3ccnc3)c2)nc2ccc([123I])cc21 [[^123I] 608] . Output its Radioactivity distribution Liver only.
0.57

Please indicate Radioactivity distribution Liver recorded for Fc1cc2nc(-c3cncc(Cn4ccnc4)c3)n(Cc3ccc([123I])cc3)c2cc1Cl [[^123I] 605]
1.93

Answer with the recorded Radioactivity distribution Liver of FCCn1c(-c2cncc(Cn3cncc3[123I])c2)nc2cc(F)c(Cl)cc21 [[^123I] 610] only.
0.95

Look up Radioactivity distribution Liver of CC(C)n1c(-c2cncc(Cn3ccnc3)c2)nc2ccc([123I])cc21 [[^123I] 606] and report it.
2.24

Supply recorded Radioactivity distribution Liver for Cn1c(-c2cncc(Cn3ccnc3)c2)nc2ccc([123I])cc21 [[^123I] 607] here.
0.67

* * *

methodDescription: In vivo kinetics experiment (radioactivity distribution)
Set-up: species or system Wistar male rat
measurementSetup: 30 min after administration; rat i.v.; mean ± SD
Procedure: Each of Compounds [^18F] 100, [^18F] 200, [^123I] 400, [^18F] 500, and [^123I] 601 to 610 obtained by the methods described in Examples 2, 4, 7, 9, 11, 13, 15, 17, 19, 21, 23, 25, 27, and 29, or [^123I] […] From the thus sacrificed rat, blood and organs (heart, lung, stomach, liver, spleen, small intestine, large intestine, kidney, bladder (including urine), muscle (lower limbs), brain, adrenal gland, testis, fat, femur, or thyroid gland) were excised, and the weights thereof were then measured. […]
The following compounds are listed with their measured Radioactivity distribution Heart values.
API: value field is a number in % ID/g; no unit string.

Solved cases below.
> print(dat)
                                   compound   units  recordednumber
1  Fc1cc2nc(-c3cncc(Cn4ccnc4)c3)n(Cc3ccc([123I])cc3)c2cc1Cl [[^123I] 605]  % ID/g            0.52
2  FCCn1c(-c2cncc(Cn3cncc3[123I])c2)nc2cc(F)c(Cl)cc21 [[^123I] 610]  % ID/g            0.31
3  Cn1c(-c2cncc(Cn3ccnc3)c2)nc2ccc([123I])cc21 [[^123I] 607]  % ID/g            0.54

// next entry
For COC(=O)c1cncn1[C@H](C)c1ccc(I)cc1 [[^123I] IMTO, (R)-[^123I]iodometomidate, reference compound] , write its Radioactivity distribution Heart.
0.74

* * *

assaySystem: human CYP11B1 (Homo sapiens)
Sequence (P15538 25-503): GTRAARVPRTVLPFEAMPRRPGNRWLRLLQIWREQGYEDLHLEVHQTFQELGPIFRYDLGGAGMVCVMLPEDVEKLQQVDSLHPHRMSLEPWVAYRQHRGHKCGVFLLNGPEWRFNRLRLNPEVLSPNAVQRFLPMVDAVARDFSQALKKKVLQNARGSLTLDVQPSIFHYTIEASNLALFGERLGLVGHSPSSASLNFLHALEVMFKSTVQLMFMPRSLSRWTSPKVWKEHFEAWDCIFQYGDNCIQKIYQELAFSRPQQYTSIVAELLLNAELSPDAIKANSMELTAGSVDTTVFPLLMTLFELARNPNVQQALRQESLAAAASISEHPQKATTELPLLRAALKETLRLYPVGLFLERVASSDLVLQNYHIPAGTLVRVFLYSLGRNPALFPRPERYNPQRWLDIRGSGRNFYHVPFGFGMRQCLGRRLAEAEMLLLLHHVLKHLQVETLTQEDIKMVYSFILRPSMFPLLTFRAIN
methodDescription: Cortisol production inhibition in V79-B1 cells expressing human CYP11B1 (ELISA)
measurementSetup: 11-deoxycortisol 100 nmol/L, 1 hour, cortisol by ELISA, mean or mean ± SD
Please note: IC50 exactly at 20 nM is criterion not met. Only values below 20 nM get criterion met.

> print(dat)
                                   compound        answerlabel
1  FCCn1c(-c2cncc(Cn3ccnc3)c2)nc2cc(F)c(Br)cc21 [Compound 200]  criterion not met
2  COC(=O)c1cncn1Cc1cncc(-c2nc3cc(F)c(Br)cc3n2CCO)c1 [Compound 300]      criterion met
3  CC(C)n1c(-c2cncc(Cn3ccnc3)c2)nc2ccc(I)cc21 [Compound 606]  criterion not met
4  Ic1ccc2nc(-c3cncc(Cn4ccnc4)c3)n(C3CC3)c2c1 [Compound 602]  criterion not met

Moving on to the next compound.
Dear colleague, could you confirm whether IC50 of COc1cc(I)cc2c1nc(-c1cncc(Cn3ccnc3)c1)n2C1CC1 [Compound 609] falls below 20 nM? Thanks.
criterion met

* * *

methodDescription: In vivo kinetics experiment (radioactivity distribution)
Design: species or system Wistar male rat
measurementSetup: 10 min after administration; rat i.v.; mean ± SD
recordedMetric: Adrenal gland/fat ratio of radioactivity accumulation

Worked examples follow.
> print(dat)
                                   compound          result
1  Fc1cc2nc(-c3cncc(Cn4ccnc4)c3)n(Cc3ccc([123I])cc3)c2cc1Cl [[^123I] 605]    41.90 ± 6.19
2  FCCn1c(-c2cncc(Cn3ccnc3)c2)nc2ccc([123I])cc21 [[^123I] 604]   92.23 ± 49.88
3  CC(C)n1c(-c2cncc(Cn3ccnc3)c2)nc2ccc([123I])cc21 [[^123I] 606]  100.88 ± 26.65
4  FCCn1c(-c2cncc(Cn3cncc3[123I])c2)nc2cc(F)c(Cl)cc21 [[^123I] 610]  100.35 ± 29.67
5  CCn1c(-c2cncc(Cn3ccnc3)c2)nc2ccc([123I])cc21 [[^123I] 608]   90.02 ± 14.66

Look up Adrenal gland/fat ratio of radioactivity accumulation of COc1cc([123I])cc2c1nc(-c1cncc(Cn3ccnc3)c1)n2C1CC1 [[^123I] 609] and report it.
92.34 ± 17.88

Kindly indicate its recorded Adrenal gland/fat ratio of radioactivity accumulation. Item: Cn1c(-c2cncc(Cn3ccnc3)c2)nc2ccc([123I])cc21 [[^123I] 607]
92.36 ± 15.53

* * *

methodDescription: In vivo kinetics experiment (radioactivity distribution)
Set-up: species or system Wistar male rat
measurementSetup: rat, caudal vein, 30 min after administration
recordedMetric: Adrenal gland/muscle ratio of radioactivity accumulation
Lab note: write the figure by itself, no unit.

> print(dat)
                                   molecule  recordednumber
1  FCCn1c(-c2cncc(Cn3ccnc3)c2)nc2cc(F)c([123I])cc21 [[^123I] 400]          110.91

# return recorded Adrenal gland/muscle ratio of radioactivity accumulation for input Fc1cc2nc(-c3cncc(Cn4ccnc4)c3)n(CCC[18F])c2cc1Cl [[^18F] 500]
160.44
